test system: human ovarian adenocarcinoma (SKOV-3) cell lines; experiment: MTS cell viability assay; assay type: cell-based; details: SK-OV-3, conjugates at 25 μM, 72 h, read-out: Inhibition of Cancer Cell Lines SKOV-3
ENDPOINT_LABEL: inhibition at 25 µM (%)
Write the answer as a number in %, unit excluded.

## Input What value of inhibition at 25 µM has been recorded for this entry: COc1ccc2occ(COC(=O)c3c(C)noc3C)c(=O)c2c1 [Compound 5c]
## Output 45

## Input Consider next the molecule COc1cccc2occ(COC(=O)c3c(C)noc3C)c(=O)c12 [Compound 5b] in the same way.
## Output 42

## Input Consider next the molecule Cc1noc(C)c1C(=O)OCc1coc2ccccc2c1=O [Compound 5a] in the same way.
## Output 69

## Input Consider next the molecule COc1ccc2c(=O)c(COC(=O)c3c(C)noc3C)coc2c1 [Compound 5d] in the same way.
## Output 48

----------
test: Proteolytic stability in human serum (HPLC); format: in vitro ADME; conditions: human, human serum (25% v/v in RPMI media), human serum, 37 °C
ENDPOINT_LABEL: half-life at 50 µM

## Input What value of half-life at 50 µM has been recorded for this entry: Cc1noc(C)c1C(=O)OCc1coc2ccccc2c1=O
## Output ~13.6 min
